Target: 5-hydroxytryptamine receptor 2C (Homo sapiens, UniProt P28335)
Assay: Agonist activity at recombinant human 5-HT2C receptor expressed in HEK293E cells assessed as induction of intracellular Ca2+ levels after 90 secs by Fluo-4-dye based FLIPR assay
Property Label: EC50

The following compounds have reported results that may help.
Cc1nn(-c2cccc3ccccc23)cc1C(=O)N1CCC(CO)CC1; 16 nM
Cc1nc(-c2cccc3ccccc23)sc1C(=O)N(C)Cc1ccn(C)n1; 13 to 19 nM
O=C(c1csc(-c2cccc(Cl)c2Cl)n1)N1CCOCC1; 119 to 128 nM
Cc1cc(-c2cccc3ccccc23)oc1C(=O)N1CCC(CO)CC1; 1030 to 2000 nM
Cc1oc(-c2cccc3ccccc23)nc1C(=O)N1CCC(CO)CC1; 381 to 575 nM

[in] Recorded EC50 for Cc1cn(-c2cccc3ccccc23)cc1C(=O)N1CCC(CO)CC1 , please?
[out] 369 to 433 nM

###

Assay: Ratio of drug uptake in Sprague-Dawley rat brain to plasma at 1 mg/kg, iv measured at 1 hr post dose by LC/MS-MS analysis
Format: ADME, organism-based
Conditions: read-out: BPR
Property Label: Kp at 1 h
Give the figure by itself; no unit, no explanation.

[in] Recorded Kp at 1 h for Cc1nc(-c2cccc3ccccc23)sc1C(=O)N1CCC(CO)CC1 , please?
[out] 0.15

###

# EC50 annotations
Target: 5-hydroxytryptamine receptor 2C (Homo sapiens)
Sequence (P28335 whole entry): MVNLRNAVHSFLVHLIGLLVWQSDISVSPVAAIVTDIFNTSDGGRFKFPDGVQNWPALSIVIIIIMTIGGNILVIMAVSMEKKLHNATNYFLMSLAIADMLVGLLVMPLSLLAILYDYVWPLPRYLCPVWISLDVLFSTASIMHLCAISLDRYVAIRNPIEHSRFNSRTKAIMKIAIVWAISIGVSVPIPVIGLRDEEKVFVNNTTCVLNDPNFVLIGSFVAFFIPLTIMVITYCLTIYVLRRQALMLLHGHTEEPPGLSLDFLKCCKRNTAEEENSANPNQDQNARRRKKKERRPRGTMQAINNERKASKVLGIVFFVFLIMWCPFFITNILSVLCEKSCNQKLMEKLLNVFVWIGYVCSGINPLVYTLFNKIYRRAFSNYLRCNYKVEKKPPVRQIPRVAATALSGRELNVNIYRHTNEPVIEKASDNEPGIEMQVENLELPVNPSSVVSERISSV
Assay: Agonist activity at recombinant human 5-HT2C receptor expressed in HEK293E cells assessed as induction of intracellular Ca2+ levels after 90 secs by Fluo-4-dye based FLIPR assay

[in] Recorded EC50 for CCn1nc(-c2nccc3ccccc23)cc1-c1cccnn1 , please?
[out] 291 to 518 nM

[in] Recorded EC50 for CCn1nc(-c2cccc3ccccc23)cc1-c1cccnn1 , please?
[out] 15 nM

[in] Recorded EC50 for O=C(c1nc(-c2cccc(Cl)c2Cl)cs1)N1CCOCC1 , please?
[out] 18 to 38 nM

[in] Recorded EC50 for Cc1nc(-c2cccc3ccccc23)sc1C(N)=O , please?
[out] > 10000 nM

[in] Recorded EC50 for Cc1nc(-c2cccc3ccccc23)sc1C(=O)N1CCC(O)CC1 , please?
[out] 47 nM

[in] Recorded EC50 for Cn1ccnc1-c1cc(-c2cccc3ccccc23)nn1C , please?
[out] 58 to 88 nM

[in] Recorded EC50 for COCCNC(=O)c1sc(-c2cccc3ccccc23)nc1C , please?
[out] > 10000 nM

[in] Recorded EC50 for O=C(c1cnc(-c2cccc(Cl)c2Cl)s1)N1CCOCC1 , please?
[out] > 10000 nM

[in] Recorded EC50 for CCn1nc(-c2cccc3ccncc23)cc1-c1ccc(N)nn1 , please?
[out] 7 nM

###

Experiment: Drug uptake in Sprague-Dawley rat brain at 30 mg/kg, po measured at 7 hrs post dose by LC/MS-MS analysis
Type: ADME, organism-based
Conditions: read-out: Drug uptake
Property Label: concentration at 7 h (µM)
Express it in µM; write the number only.

[in] Recorded concentration at 7 h for Cc1nc(-c2cccc3ccccc23)sc1C(=O)N1CCC(CO)CC1 , please?
[out] 0.035

###

Test: Metabolic stability in human liver microsomes assessed as parent compound remaining at […] after 10 mins
Assay type: ADME, microsome
Details: read-out: Stability
Property Label: remaining at 10 min (%)

The following molecules have reported results that may help.
Cc1nc(-c2cccc3ccccc23)sc1C(=O)N(C)Cc1cccnc1; 5
CCn1nc(-c2cccc3ccccc23)cc1-c1ncnn1C; 4
Cc1nc(-c2cccc3ccccc23)sc1C(=O)N1CCc2[nH]cnc2C1; 70
CCn1nc(-c2cccc3ccccc23)cc1-c1nccn1C; 5
CCn1nc(-c2cccc3ccncc23)cc1-c1cccnn1; 16

1. CCn1nc(-c2cccc3ccccc23)cc1-c1cccnn1
2. Cn1cc(-c2cccc3ccccc23)cc1C(=O)N1CCC(CO)CC1
[in] Determine, for 1 and 2 , which has the greater value of remaining at 10 min. Pick one; state its label.
[out] 2

###

Assay: Protein binding in human plasma
Format: ADME, cell-free
Conditions: read-out: PPB (converted)
Property Label: fraction unbound

Cn1nc(-c2cccc3ccccc23)cc1C(=O)N1CCC(CO)CC1; 0.023

A. Cc1[nH]c(-c2cccc3ccccc23)cc1C(=O)N1CCC(CO)CC1
B. Cc1nc(-c2cccc3ccccc23)sc1C(=O)N1CCC(CO)CC1
C. CCn1nc(-c2cccc3cccnc23)cc1-c1ccc(N)nn1
[in] Write the entries in order, lowest recorded fraction unbound first. Give the labels in the order specified.
[out] B, A, C
(B: 0.005, A: 0.017, C: 0.062)

###

Assay: Drug uptake in Sprague-Dawley rat brain at 30 mg/kg, po measured at 1 hr post dose by LC/MS-MS analysis
Type: ADME, organism-based
Settings: read-out: Drug uptake
Property Label: concentration at 1 h (nM)
Express it in nM; write the number only.

[in] Recorded concentration at 1 h for Cc1[nH]c(-c2cccc3ccccc23)cc1C(=O)N1CCC(CO)CC1 , please?
[out] 202

###

Test: Metabolic stability in human liver microsomes assessed as parent compound remaining at […] after 10 mins
Type: ADME, microsome
Conditions: read-out: Stability
Property Label: remaining at 10 min (%)

A. Cc1cc(-c2cccc3ccccc23)sc1C(=O)N1CCC(CO)CC1
B. CCn1nc(-c2cccc3ccccc23)cc1-c1nnnn1C
[in] In terms of reported remaining at 10 min, does A or B have the smaller number? Pick one; state its label.
[out] B
(B: 4%, A: 87%)

P. Cc1cn(-c2cccc3ccccc23)cc1C(=O)N1CCC(CO)CC1
Q. Cn1ccnc1-c1cc(-c2cccc3ccccc23)nn1C
[in] In terms of reported remaining at 10 min, does P or Q have the smaller number? Pick one; state its label.
[out] Q
(Q: 15%, P: 67%)

###

Experiment: Permeability of compound at pH 5.5 by PAMPA
Type: physicochemical
Details: read-out: permeability
Property Label: Papp (×10⁻⁶ cm/s)

Cc1[nH]c(-c2cccc3ccccc23)cc1C(=O)N1CCC(CO)CC1; 62.4
CCn1nc(-c2cccc3cccnc23)cc1-c1ccc(N)nn1; 72.7
Cn1nc(-c2cccc3ccccc23)cc1C(=O)N1CCC(CO)CC1; 58.8
Cc1nc(-c2cccc3ccccc23)sc1C(=O)N1CCC(CO)CC1; 60.7

###

# EC50 annotations
Target: 5-hydroxytryptamine receptor 2C (Homo sapiens)
Sequence (P28335 whole entry): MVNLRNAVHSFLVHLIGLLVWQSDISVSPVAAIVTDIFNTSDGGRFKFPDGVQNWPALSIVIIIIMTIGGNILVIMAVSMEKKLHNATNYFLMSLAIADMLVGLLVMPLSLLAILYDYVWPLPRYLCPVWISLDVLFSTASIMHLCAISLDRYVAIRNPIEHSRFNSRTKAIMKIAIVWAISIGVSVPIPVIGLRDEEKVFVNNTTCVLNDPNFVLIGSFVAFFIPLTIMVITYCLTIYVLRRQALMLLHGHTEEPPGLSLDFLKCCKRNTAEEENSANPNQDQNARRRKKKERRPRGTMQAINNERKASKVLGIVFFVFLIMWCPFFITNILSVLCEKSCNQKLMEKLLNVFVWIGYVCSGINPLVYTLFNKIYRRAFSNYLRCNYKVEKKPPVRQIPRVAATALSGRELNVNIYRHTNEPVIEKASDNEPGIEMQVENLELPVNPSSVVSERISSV
Experiment: Agonist activity at recombinant human 5-HT2C receptor expressed in HEK293E cells assessed as induction of intracellular Ca2+ levels after 90 secs by Fluo-4-dye based FLIPR assay

The following compounds have reported results that may help.
Cc1nn(-c2cccc3ccccc23)nc1C(=O)N1CCC(CO)CC1; 334 to 385 nM
Cc1nc(-c2cccc3ccccc23)sc1C(=O)N(CCO)C(C)C; > 10000 nM
O=C(c1nnn(-c2cccc3ccccc23)n1)N1CCC(CO)CC1; 4100 to 10000 nM

[in] Recorded EC50 for CCn1nc(-c2cccc3ccccc23)cc1-c1ncccn1 , please?
[out] 1700 to 1900 nM

[in] Recorded EC50 for Cc1nc(-c2cccc3ccccc23)sc1C(=O)N(C)CCO , please?
[out] 30 to 50 nM

[in] Recorded EC50 for O=C(c1nc(-c2cccc3ccccc23)cs1)N1CCOCC1 , please?
[out] 729 to 1620 nM
